The values you see were collected from patent US20220202822A1.

PROTOCOL_DETAILS: Pharmacokinetic evaluation in beagles after intravenous or intragastric administration
Assay type: in vivo, beagle
CONDITION_SET: beagle, dog, plasma, intravenous injection, 1 mg/kg

COMPOUND	Cmax [ng/mL]
CCn1c(=O)c2c(nc(/C=C/c3ccc(OC4CCS(=O)(=O)CC4)cc3)n2C)n(CC)c1=O [Example 1]	1870

====

PROTOCOL_DETAILS: Pharmacokinetic evaluation in beagles after intravenous or intragastric administration
Format: in vivo, beagle
CONDITION_SET: beagle, dog, plasma, po, intragastric administration, 5 mg/kg
QUANTITY_MEASURED: Tmax (h)

COMPOUND	RECORDED_RESULT
CCn1c(=O)c2c(nc(/C=C/c3ccc(OC4CCS(=O)(=O)CC4)cc3)n2C)n(CC)c1=O [Example 1]	4.67

====

PROTOCOL_DETAILS: Pharmacokinetic evaluation in beagles after intravenous or intragastric administration
Format: in vivo, beagle
CONDITION_SET: beagle, dog, plasma, intravenous injection, 1 mg/kg

GIVEN_SMILES	UNIT_ABBREVIATION	clearance
CCn1c(=O)c2c(nc(/C=C/c3ccc(OC4CCS(=O)(=O)CC4)cc3)n2C)n(CC)c1=O	mL/min/kg	0.296

====

Measured AUC(0-inf) values are reported for all entries that follow.
PROTOCOL_DETAILS: Pharmacokinetic evaluation in rats after intravenous or intragastric administration
Assay type: in vivo, SD rats
CONDITION_SET: SD, rat, plasma, intravenous injection, 1 mg/kg
QUANTITY_MEASURED: AUC(0-inf) (ng·h/mL)

MOLECULE	QUANTITY_MEASURED	RECORDED_RESULT
CCn1c(=O)c2c(nc(/C=C/c3ccc(OC4CCS(=O)(=O)CC4)c(F)c3)n2C)n(CC)c1=O [Example 2]	AUC(0-inf)	4230
CCn1c(=O)c2c(nc(/C=C/c3ccc(OC4CCS(=O)(=O)CC4)cc3)n2C)n(CC)c1=O [Example 1]	AUC(0-inf)	4360

====

PROTOCOL_DETAILS: Pharmacokinetic evaluation in beagles after intravenous or intragastric administration
Type: in vivo, beagle
CONDITION_SET: beagle, dog, plasma, intravenous injection, 1 mg/kg
QUANTITY_MEASURED: half-life (h)

COMPOUND	RECORDED_RESULT
CCn1c(=O)c2c(nc(/C=C/c3ccc(OC4CCS(=O)(=O)CC4)cc3)n2C)n(CC)c1=O [Example 1]	30.5

====

PROTOCOL_DETAILS: Pharmacokinetic evaluation in beagles after intravenous or intragastric administration
Assay type: in vivo, beagle
CONDITION_SET: beagle, dog, plasma, po, intragastric administration, 5 mg/kg

GIVEN_SMILES	UNIT_ABBREVIATION	AUC(0-t)
CCn1c(=O)c2c(nc(/C=C/c3ccc(OC4CCS(=O)(=O)CC4)cc3)n2C)n(CC)c1=O	ng·h/mL	40300

====

PROTOCOL_DETAILS: Pharmacokinetic evaluation in beagles after intravenous or intragastric administration
Assay type: in vivo, beagle
CONDITION_SET: beagle, dog, plasma, intravenous injection, 1 mg/kg
QUANTITY_MEASURED: AUC(0-inf)

GIVEN_SMILES	QUANTITY_MEASURED	RECORDED_RESULT
CCn1c(=O)c2c(nc(/C=C/c3ccc(OC4CCS(=O)(=O)CC4)cc3)n2C)n(CC)c1=O	AUC(0-inf)	56300 ng·h/mL
